Each recorded value in this set is attributed to ChEMBL document CHEMBL5579874.

# measured target: Insulin-like growth factor 1 receptor (Homo sapiens)
# Sequence (P08069 31-736 limits assumed): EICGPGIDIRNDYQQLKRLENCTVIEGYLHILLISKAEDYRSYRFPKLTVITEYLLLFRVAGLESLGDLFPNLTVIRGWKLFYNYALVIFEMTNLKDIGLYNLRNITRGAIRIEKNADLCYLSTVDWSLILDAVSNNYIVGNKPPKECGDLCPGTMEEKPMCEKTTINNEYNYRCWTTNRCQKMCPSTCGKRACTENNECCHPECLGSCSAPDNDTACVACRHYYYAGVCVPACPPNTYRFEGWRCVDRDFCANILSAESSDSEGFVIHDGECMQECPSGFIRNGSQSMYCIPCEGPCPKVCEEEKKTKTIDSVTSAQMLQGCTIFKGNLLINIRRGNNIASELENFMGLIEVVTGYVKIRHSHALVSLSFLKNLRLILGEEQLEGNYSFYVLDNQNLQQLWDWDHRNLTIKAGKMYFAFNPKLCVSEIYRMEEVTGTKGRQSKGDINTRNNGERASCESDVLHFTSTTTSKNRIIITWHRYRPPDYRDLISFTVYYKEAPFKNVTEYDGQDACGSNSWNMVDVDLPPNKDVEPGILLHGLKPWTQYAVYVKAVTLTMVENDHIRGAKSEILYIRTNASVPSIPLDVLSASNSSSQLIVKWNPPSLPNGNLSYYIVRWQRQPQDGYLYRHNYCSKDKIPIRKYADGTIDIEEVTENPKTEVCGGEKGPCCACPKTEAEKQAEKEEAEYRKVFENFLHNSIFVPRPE
# Sequence (P08069 741-1367 limits assumed): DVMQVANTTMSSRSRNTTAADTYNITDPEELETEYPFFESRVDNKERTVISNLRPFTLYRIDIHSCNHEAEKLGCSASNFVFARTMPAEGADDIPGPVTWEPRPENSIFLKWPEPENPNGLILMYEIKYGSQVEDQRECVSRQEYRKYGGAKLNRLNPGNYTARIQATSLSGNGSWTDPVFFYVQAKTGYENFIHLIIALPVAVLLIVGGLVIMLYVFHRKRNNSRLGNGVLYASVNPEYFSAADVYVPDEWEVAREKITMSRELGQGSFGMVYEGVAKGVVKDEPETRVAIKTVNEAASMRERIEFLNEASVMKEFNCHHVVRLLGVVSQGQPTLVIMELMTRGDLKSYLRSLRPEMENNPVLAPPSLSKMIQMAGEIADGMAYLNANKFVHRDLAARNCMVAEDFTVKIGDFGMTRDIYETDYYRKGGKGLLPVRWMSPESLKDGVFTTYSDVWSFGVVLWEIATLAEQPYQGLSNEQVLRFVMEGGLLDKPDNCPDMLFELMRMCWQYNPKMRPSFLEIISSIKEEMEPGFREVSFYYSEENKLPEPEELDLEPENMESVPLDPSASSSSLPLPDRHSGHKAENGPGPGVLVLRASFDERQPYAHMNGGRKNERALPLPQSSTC
recorded endpoint: IC50
Include the unit after the number when you answer.

Record "CC(=O)N[C@H]1CC[C@H](c2ncc(Cl)c(Nc3ccccc3S(=O)(=O)C(C)C)n2)CC1" , field IC50: 2890 nM

---

# measured target: Cyclin-dependent kinase 4 (Homo sapiens)
# Sequence (P11802 whole entry): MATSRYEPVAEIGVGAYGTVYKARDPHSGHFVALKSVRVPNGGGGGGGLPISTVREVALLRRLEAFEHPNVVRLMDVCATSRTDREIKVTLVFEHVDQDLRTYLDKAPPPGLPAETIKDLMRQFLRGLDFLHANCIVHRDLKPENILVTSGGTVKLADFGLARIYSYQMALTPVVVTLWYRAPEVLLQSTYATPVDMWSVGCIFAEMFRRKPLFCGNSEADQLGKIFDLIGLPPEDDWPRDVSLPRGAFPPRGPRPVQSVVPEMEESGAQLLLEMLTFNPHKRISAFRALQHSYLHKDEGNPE
recorded endpoint: pIC50
As a rule, pIC50 stands for the negative log10 of the concentration, concentration in M.

Recorded pIC50 (molecule "CC(=O)N[C@H]1CC[C@H](c2ncc(Cl)c(Nc3ccccc3S(=O)(=O)C(C)C)n2)CC1" ): 6.19

---

# measured target: Tyrosine-protein kinase BTK (Homo sapiens)
# Sequence (Q06187 whole entry): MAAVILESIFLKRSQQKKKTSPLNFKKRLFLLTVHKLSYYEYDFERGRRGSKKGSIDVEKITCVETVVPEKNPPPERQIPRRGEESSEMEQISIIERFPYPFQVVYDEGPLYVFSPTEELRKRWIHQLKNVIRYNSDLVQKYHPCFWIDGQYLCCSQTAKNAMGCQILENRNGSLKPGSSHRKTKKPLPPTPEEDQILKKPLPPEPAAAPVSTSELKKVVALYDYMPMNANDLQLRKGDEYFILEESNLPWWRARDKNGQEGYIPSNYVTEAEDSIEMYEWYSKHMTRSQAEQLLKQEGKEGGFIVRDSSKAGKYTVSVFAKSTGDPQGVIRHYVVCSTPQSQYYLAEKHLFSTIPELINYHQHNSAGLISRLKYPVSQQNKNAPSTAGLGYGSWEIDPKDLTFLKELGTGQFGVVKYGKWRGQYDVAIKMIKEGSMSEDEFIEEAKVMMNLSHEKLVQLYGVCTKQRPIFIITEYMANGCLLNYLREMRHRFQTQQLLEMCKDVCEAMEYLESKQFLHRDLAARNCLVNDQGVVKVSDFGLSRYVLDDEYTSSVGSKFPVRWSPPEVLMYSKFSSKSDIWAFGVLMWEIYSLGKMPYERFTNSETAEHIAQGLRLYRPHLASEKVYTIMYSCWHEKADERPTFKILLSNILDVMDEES
# method notes: Inhibition of human recombinant BTK incubated for 1 hr by HTRF assay
pIC50: −log10 of the molar value.
recorded endpoint: pIC50

The value of pIC50 measured for the compound "CC(=O)N[C@H]1CC[C@H](c2ncc(Cl)c(Nc3ccccc3S(=O)(=O)C(C)C)n2)CC1" turned out to be < 5.00
